measured_target: GABA-B receptor (Homo sapiens, UniProt O75899+Q9UBS5)
Sequence (Q9UBS5 whole entry): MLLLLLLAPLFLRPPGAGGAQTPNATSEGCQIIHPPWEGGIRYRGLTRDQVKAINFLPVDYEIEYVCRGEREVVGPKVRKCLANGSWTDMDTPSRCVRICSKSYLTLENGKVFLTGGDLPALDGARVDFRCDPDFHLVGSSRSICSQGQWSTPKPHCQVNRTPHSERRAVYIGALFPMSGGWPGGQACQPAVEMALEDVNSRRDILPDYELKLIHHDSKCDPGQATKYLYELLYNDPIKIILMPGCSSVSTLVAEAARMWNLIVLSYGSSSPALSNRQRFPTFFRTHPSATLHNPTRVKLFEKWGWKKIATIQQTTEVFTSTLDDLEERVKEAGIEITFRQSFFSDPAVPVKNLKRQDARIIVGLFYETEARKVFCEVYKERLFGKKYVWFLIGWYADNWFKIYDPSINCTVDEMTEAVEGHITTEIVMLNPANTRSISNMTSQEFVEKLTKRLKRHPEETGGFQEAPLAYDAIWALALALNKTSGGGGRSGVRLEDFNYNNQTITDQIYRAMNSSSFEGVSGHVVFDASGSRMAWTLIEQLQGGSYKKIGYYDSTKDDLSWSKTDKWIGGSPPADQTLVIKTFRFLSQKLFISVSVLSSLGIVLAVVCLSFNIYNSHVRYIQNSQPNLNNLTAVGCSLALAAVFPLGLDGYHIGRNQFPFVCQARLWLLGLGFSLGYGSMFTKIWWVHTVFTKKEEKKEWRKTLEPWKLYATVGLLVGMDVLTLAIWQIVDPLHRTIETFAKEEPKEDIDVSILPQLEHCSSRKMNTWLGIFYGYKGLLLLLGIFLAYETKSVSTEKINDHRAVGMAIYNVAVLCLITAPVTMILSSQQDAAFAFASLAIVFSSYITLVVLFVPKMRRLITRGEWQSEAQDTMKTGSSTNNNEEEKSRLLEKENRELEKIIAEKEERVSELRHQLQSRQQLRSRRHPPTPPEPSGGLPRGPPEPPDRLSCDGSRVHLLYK
Sequence (O75899 whole entry): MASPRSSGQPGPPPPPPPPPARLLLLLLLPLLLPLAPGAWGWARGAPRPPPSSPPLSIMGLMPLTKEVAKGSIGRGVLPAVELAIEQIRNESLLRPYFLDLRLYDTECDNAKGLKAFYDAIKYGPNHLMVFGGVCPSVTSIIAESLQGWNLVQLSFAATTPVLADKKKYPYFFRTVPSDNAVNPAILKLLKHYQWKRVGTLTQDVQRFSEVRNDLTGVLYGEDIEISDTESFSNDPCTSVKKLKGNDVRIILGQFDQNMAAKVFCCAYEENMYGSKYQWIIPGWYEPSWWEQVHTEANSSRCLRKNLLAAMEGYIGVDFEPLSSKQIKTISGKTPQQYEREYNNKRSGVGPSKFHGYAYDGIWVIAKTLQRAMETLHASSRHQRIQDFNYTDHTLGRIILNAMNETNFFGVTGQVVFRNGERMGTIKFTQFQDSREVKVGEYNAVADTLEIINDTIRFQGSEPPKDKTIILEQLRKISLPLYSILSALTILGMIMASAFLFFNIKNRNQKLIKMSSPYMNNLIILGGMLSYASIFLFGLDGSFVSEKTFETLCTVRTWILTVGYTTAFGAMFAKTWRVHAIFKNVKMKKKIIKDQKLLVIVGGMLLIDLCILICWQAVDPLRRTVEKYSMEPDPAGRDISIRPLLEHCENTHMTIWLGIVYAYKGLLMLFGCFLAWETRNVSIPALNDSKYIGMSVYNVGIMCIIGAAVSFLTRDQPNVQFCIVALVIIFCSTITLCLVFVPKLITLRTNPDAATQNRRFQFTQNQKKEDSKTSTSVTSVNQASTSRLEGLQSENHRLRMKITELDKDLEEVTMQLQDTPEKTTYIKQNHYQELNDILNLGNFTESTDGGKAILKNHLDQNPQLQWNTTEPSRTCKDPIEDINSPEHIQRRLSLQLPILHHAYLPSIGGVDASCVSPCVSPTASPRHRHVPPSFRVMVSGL
assay_overview: Inhibition of [3H]-baclofen binding to Gamma-aminobutyric acid type B receptor of cat cerebellum
Assay type: tissue-based, Felis catus
test_settings: target entry is the homologue from another species
parameter: IC50 (nM)
# number only, unit nM dropped from output

Consider the reported IC50 for these molecules:
# molecule, measured_target, unit_name, IC50
records = [
    ("NCCC[PH](=O)O", "GABA-B receptor (Homo sapiens, UniProt O75899+Q9UBS5)", "nM", 2.4),
    ("NCC(O)C[PH](=O)O (stereo not drawn)", "GABA-B receptor (Homo sapiens, UniProt O75899+Q9UBS5)", "nM", 18),
]

Okay, next one:
Look up IC50 for this molecule: `CCP(=O)(O)CCCN`
1350

FYI, the data here is from ChEMBL document CHEMBL1128747.
